# PROTOCOL_TEXT: amyloid nucleation score (Sup35N fusion, yeast selection) (log enrichment); library NNK1; higher = more nucleation; inactive = no reads after selection;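 also: zero at mode of non-aggregating sequences after 7 days selection at 30°C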
Lab note: compare amyloid nucleation score against 0.06. Equal or greater, write Yes. Smaller, write No.

Req: Record `LIHVCQYCVRPVNGGSVNLR` ; criterion: amyloid nucleation score no lower than 0.06. Met?
Resp: Yes

Req: Does the reported amyloid nucleation score for `RYLDSLYKPRYYYQMVAIYG` fall at or above the 0.06 mark?
Resp: No

Req: Reported amyloid nucleation score reaches at least 0.06 for `RYDSRFALPLDLS` ?
Resp: No

Req: Entry `RLFLSLLMKSRTIMRRKGLV` : is its amyloid nucleation score no less than 0.06?
Resp: Yes

Req: Determine whether this substance has amyloid nucleation score no lower than 0.06: `RYSGFLSVSLL`
Resp: No

Req: In plain terms: is recorded amyloid nucleation score at least 0.06 for `CSAFDVIN` ?
Resp: No

Req: Tell me whether amyloid nucleation score is at least 0.06 here: `SVKSIRCLCSVVEYKETGHR`
Resp: Yes

Req: Reported amyloid nucleation score at or above 0.06? `IVDSVRGKGVY`
Resp: Yes

Req: Form field: amyloid nucleation score at least 0.06? Entry: `PRYNCYQQHEVALDFSSLRC`
Resp: No

Req: Given the entry `CSNDLECFCDFNCRL` , answer whether its amyloid nucleation score meets or surpasses 0.06.
Resp: No

Req: Record `KSYVCGTLTFRLGSVHCVNM` ; criterion: amyloid nucleation score no lower than 0.06. Met?
Resp: Yes

Req: Is reported amyloid nucleation score greater than or equal to 0.06 here: `CVALGGLMAMLIASVIWENN`
Resp: No

Req: Please check the record `YKNIPFTYGSFVLASYMSRK` and state if its amyloid nucleation score is at or above 0.06.
Resp: Yes

Req: I'd appreciate it if you could say whether `IMLQCYIVFCFRGRSLIRKA` has amyloid nucleation score at least equal to 0.06.
Resp: No

Req: Hi team, for `MIDRRKSLVEGRGRNCVSGC` , is the recorded amyloid nucleation score at or above 0.06?
Resp: No

Req: Determine whether measured amyloid nucleation score meets or exceeds 0.06 for `CMLSCFSDRAWIMQRSVCAC`
Resp: Yes

Req: API: above_or_equal(metric=amyloid nucleation score, cutoff=0.06) for item `ALRFFWDPFIDG`
Resp: Yes

Req: Quick check, amyloid nucleation score >= 0.06? `WCSKYCMMPSFPTMSRPVPL`
Resp: No

Req: I'd appreciate it if you could say whether `DLADNVRKMGEFTSSVANIL` has amyloid nucleation score at least equal to 0.06.
Resp: Yes

Req: State whether the measured amyloid nucleation score reaches 0.06, counting equality as reaching it, for `SNSSLECYCMNVVRFHLGLS`
Resp: Yes

Req: Would you say `YCEYILGFCFEMYAFGNRSP` shows amyloid nucleation score at minimum 0.06?
Resp: Yes

Req: State whether the measured amyloid nucleation score reaches 0.06, counting equality as reaching it, for `LRGRLYASGRVEFYHKQSLF`
Resp: Yes

Req: hey, is amyloid nucleation score for this one >= 0.06? `SKSFDRKMVC`
Resp: No

Req: Reported amyloid nucleation score reaches at least 0.06 for `ANGMEGL` ?
Resp: Yes

Req: For this substance, is measured amyloid nucleation score 0.06 or higher? `VMLMCYPLTRPRCGTERNMF`
Resp: Yes

Req: Does the reported amyloid nucleation score for `RGSMSEWNILYVYASIYKGD` fall at or above the 0.06 mark?
Resp: Yes

Req: Check the entry `GGYGERRDVVVDRSYTVDTG` : does amyloid nucleation score equal or exceed 0.06?
Resp: Yes

Req: Say whether `LVESMNLIPATANRHNFTRL` shows amyloid nucleation score of 0.06 or more.
Resp: No

Req: Tell me whether amyloid nucleation score is at least 0.06 here: `SNMRRASFNHGGRWNSGRGN`
Resp: No

Req: Threshold query (amyloid nucleation score >= 0.06) on `RCLTPVIRVIYFG`
Resp: No

Req: Given the entry `MPAWFILGDVVL` , answer whether its amyloid nucleation score meets or surpasses 0.06.
Resp: Yes
